Recorded measurements of melting point, one per entry

Please review the following examples before continuing.
{"compound": "COc1ccc(Cc2nc3cc(Cl)cc(CC(N)=O)c3o2)cc1OC1CCCC1", "melting point": "162 to 164 °C"}
{"compound": "Nc1nc(CN2CCN(C(c3ccccc3)c3ccccc3)CC2)cs1", "melting point": "156 to 160 °C"}
{"compound": "O=C1N=c2cc(O)c(O)cc2=NC1=O", "melting point": "> 350 °C"}

Output measured melting point for this item: COc1c(O)cc2oc(-c3ccccc3)cc(=O)c2c1O
203 to 204 °C

Supply measured melting point of COc1ccc(N2CCC(=O)N(c3ccc(C)cc3)CC2)c(-c2ccc(N(C)C)cc2)n1 in your reply.
174 to 175 °C

Tell me its melting point given CC(C)n1cc(C(=O)O)c2ccc([N+](=O)[O-])cc21 as the entry.
242 to 243 °C

Name the recorded melting point of the item N#Cc1cc2c(c(C(=O)O)c1)NCCS2 in your answer.
241 to 242 °C

Look up and report measured melting point for this entry: CCNC1CC=C(c2c[nH]c3cc(NC(=N)c4cccs4)ccc23)CC1 (stereo unspecified)
95 to 97 °C

Quote melting point reported for Cc1cc(-c2nc3cccnn3c2-c2ccnc(NC(=O)c3ccnc(Cl)c3)c2)ccc1F please.
224 to 225 °C

Return reported melting point. Input compound: Cc1nc(OCC(F)(F)F)c([N+](=O)[O-])c(N2CCC(c3ccc(F)cc3)CC2)n1
61 to 64 °C

---

measure_name: melting point

// known answers, use as guide
{"molecule": "CC(C(N)=O)c1ccc2nc(-c3ccccc3)oc2c1 (centres undefined)", "measure_name": "melting point", "recorded_measurement": "193 °C"}
{"molecule": "CCOCCn1cccc1-c1nc(-c2ccc(OC)cc2)c(-c2ccc(OC)cc2)s1", "measure_name": "melting point", "recorded_measurement": "68 to 71 °C"}
{"molecule": "c1ccc(COCCCCOCc2ccccc2)cc1", "measure_name": "melting point", "recorded_measurement": "18 °C"}
{"molecule": "CN1CCN(Cc2nnc(-c3ccccc3)cc2-c2cccc([N+](=O)[O-])c2)CC1", "measure_name": "melting point", "recorded_measurement": "157 to 159 °C"}
{"molecule": "Cc1ccccc1NC(=O)N[C@H]1C[C@@](N)(C(=O)O)[C@@H]2[C@@H](C(=O)O)[C@@H]21 (relative stereo)", "measure_name": "melting point", "recorded_measurement": "> 250 °C"}
{"molecule": "CS(=O)(=O)Nc1cc(C(O)CNC2CCN(c3ccc(C=C4SC(=O)NC4=O)cc3Br)CC2)ccc1O (centres undefined)", "measure_name": "melting point", "recorded_measurement": "> 200 °C"}

Fill in melting point for record O=C(NC(Cl)C(Cl)(Cl)Cl)c1ccccc1O (centres undefined)
113 to 114 °C

For the molecule COC(=O)c1ccc(OCC(=O)c2cc3cc(Cl)ccc3o2)cc1 , give its measured melting point value.
145 to 147 °C

Indicate the recorded melting point value for this molecule: COc1cc(OCC(CO)CO)c(-c2cccs2)cc1C=CC(=O)c1ccc(C(=O)O)cc1
199 to 201 °C

Name the recorded melting point of the molecule listed here: CC(C)(C)OC(=O)C(CSCc1ccc(-c2ccc(-c3cccc4c3oc3ccccc34)cc2)cc1)C(=O)O (centres undefined)
205 to 206 °C

Tell us which melting point value is on record for COC(=O)c1cc(OC)c(Cl)c(C)c1Cl
74 °C

For O=C(O)c1ccc2oc(-c3ccc(C(F)(F)F)nc3)cc2c1 , write its melting point.
> 260 °C

Entry COc1cccc(OC)c1CN1C(=O)C2CCCN2c2ccccc21 (centres undefined) needs its melting point filled in; supply it.
128 to 130 °C

Please give measured melting point of the following entry: N#CCC(=O)Nc1ccc(N)c([N+](=O)[O-])c1
218 to 221 °C

Look up and report measured melting point for this entry: COC(=O)c1ccc(C(=O)N2CCN(C(=O)c3ccc(C(=O)OC)cc3)CC2)cc1
234 to 237 °C

For Cc1cc(Cl)c2c(c1)C(=O)N(C(C)(C)C)CC(=O)N2 , write its melting point.
151 to 152 °C

Item CC12CCC3c4ccc(OC(=O)Cc5ccccc5)cc4CCC3C1CCC2=O (centres undefined) : provide melting point
114 to 116 °C

Please report melting point for the following molecule: C[C@@H](O[Si](C)(C)C(C)(C)C)[C@@H]1C(=O)N[C@@H]1S(C)(=O)=O
101 to 102 °C

Read the entry O=C(N[C@H]1CC[C@H](CCN2CCN(c3nccc4c3CCO4)CC2)CC1)c1ccc2ncccc2c1 and write its reported melting point.
227 °C
